Test system: EBV lymphoblastoid cells (LCL) viability, plate reader
Assay: cytotoxicity in EBV lymphoblastoid cells, dose response, cytotoxicity control, cell-based, plate reader, cherry-picks, set 2 (AID 504882)
Inconclusive results are not listed.

{"mol smiles": "O=[N+]([O-])c1ccc(O)c(/C=N/Nc2ncnc3c2cnn3-c2ccccc2)c1", "AC50": "4.55 µM"}
{"mol smiles": "Cc1nc2c(-c3ccc(Cl)cc3)c(C)[nH]n2c(=O)c1Cc1ccccc1", "AC50": "6.96 µM"}
{"mol smiles": "N#CC(C#N)=NNc1ccc(-n2ccc(C(F)(F)F)n2)cc1", "AC50": "2.53 µM"}

---

# AC50 per entry
System: EBV lymphoblastoid cells (LCL) viability, plate reader
Assay: cytotoxicity in EBV lymphoblastoid cells, dose response, cytotoxicity control, cell-based, plate reader, cherry-picks, set 2 (AID 504882)
Inconclusive results are not listed.

{"molecule": "CCC(=O)NC(c1cc(Cl)c2cccnc2c1O)C1CC1 (stereo not given)", "target system": "EBV lymphoblastoid cells (LCL) viability, plate reader", "AC50": "6.08 µM"}
{"molecule": "NC(=S)N/N=C/c1ncc(C(F)(F)F)cc1Cl", "target system": "EBV lymphoblastoid cells (LCL) viability, plate reader", "AC50": "10.6 µM"}
{"molecule": "CC(=O)NC(c1ccc(Cl)cc1)c1ccc2cccnc2c1O (stereo not given)", "target system": "EBV lymphoblastoid cells (LCL) viability, plate reader", "AC50": "1.21 µM"}
{"molecule": "CC(=O)NC(c1ccc2ccccc2c1)c1ccc2cccnc2c1O (stereo not given)", "target system": "EBV lymphoblastoid cells (LCL) viability, plate reader", "AC50": "1.93 µM"}
{"molecule": "O=C(N/N=C/c1sc2ccccc2c1O)c1cccc2ccccc12", "target system": "EBV lymphoblastoid cells (LCL) viability, plate reader", "AC50": "1.71 µM"}
{"molecule": "CN1CCN(/N=C/c2ccc(N(c3ccccc3)c3ccccc3)cc2)CC1", "target system": "EBV lymphoblastoid cells (LCL) viability, plate reader", "AC50": "0.354 µM"}
{"molecule": "C(=N\\Nc1nc2ccccc2[nH]1)/c1cccc2cccnc12", "target system": "EBV lymphoblastoid cells (LCL) viability, plate reader", "AC50": "1.06 µM"}
{"molecule": "O=c1[nH]c(=O)n([C@H]2C[C@H](O)[C@@H](CO)O2)cc1C(F)(F)F", "target system": "EBV lymphoblastoid cells (LCL) viability, plate reader", "AC50": "1.51 µM"}
{"molecule": "CCN(CC)CCC(=O)N1C/C(=C/c2ccccc2)C(=O)/C(=C\\c2ccccc2)C1", "target system": "EBV lymphoblastoid cells (LCL) viability, plate reader", "AC50": "1.36 µM"}
{"molecule": "CCCC(=O)NC(c1cccc([N+](=O)[O-])c1)c1ccc2cccnc2c1O (stereo not given)", "target system": "EBV lymphoblastoid cells (LCL) viability, plate reader", "AC50": "3.51 µM"}
{"molecule": "CCOc1cccc(/C=N/Nc2ccc(S(=O)(=O)N(CC)CC)cn2)c1O", "target system": "EBV lymphoblastoid cells (LCL) viability, plate reader", "AC50": "1.79 µM"}
{"molecule": "O=Cc1ccc(-c2cccs2)s1", "target system": "EBV lymphoblastoid cells (LCL) viability, plate reader", "AC50": "11.8 µM"}
{"molecule": "C=CCn1c(O)c(N=NC(=S)Nc2cccc(C)c2)c2ccccc21", "target system": "EBV lymphoblastoid cells (LCL) viability, plate reader", "AC50": "2.48 µM"}
{"molecule": "CCn1c2ccccc2c2cc(/C=N/n3cn[nH]c3=S)ccc21", "target system": "EBV lymphoblastoid cells (LCL) viability, plate reader", "AC50": "3.79 µM"}
{"molecule": "Clc1ccc(SCc2cc(N3CCOCC3)nc(-c3ccccn3)n2)cc1", "target system": "EBV lymphoblastoid cells (LCL) viability, plate reader", "AC50": "4.05 µM"}
{"molecule": "CC1(C)N=C(N)N=C(N)N1c1ccc(CCCCc2ccccc2)cc1", "target system": "EBV lymphoblastoid cells (LCL) viability, plate reader", "AC50": "0.991 µM"}
{"molecule": "CC(=O)Nc1nc(C)c(-c2csc(Nc3ccc(O)cc3)n2)s1", "target system": "EBV lymphoblastoid cells (LCL) viability, plate reader", "AC50": "19.4 µM"}
{"molecule": "CCCCCCc1cc2cc(-c3nnc(-c4ccccc4)o3)c(=O)oc2cc1O", "target system": "EBV lymphoblastoid cells (LCL) viability, plate reader", "AC50": "9.34 µM"}
{"molecule": "CCCCC(=O)NC(c1ccc(Cl)cc1Cl)c1ccc2cccnc2c1O (stereo not given)", "target system": "EBV lymphoblastoid cells (LCL) viability, plate reader", "AC50": "2.55 µM"}
{"molecule": "CCn1c2ccccc2c2cc(/C=C(/C#N)C(N)=S)ccc21", "target system": "EBV lymphoblastoid cells (LCL) viability, plate reader", "AC50": "0.998 µM"}
